Tested on: Escherichia coli
Experiment: Efflux index, ratio of MIC for wild type Escherichia coli MG1655 to MIC for Escherichia coli MG1655 expressing AcrAB-TolC efflux pump deletion mutant
Type: functional
PROPERTY NAME: Ratio

In [3]: df
Out[3]:
                                input_smiles  result
 0  O=C1O[C@@H](CO)CN1c1ccc(-c2cc(O)ccc2F)cc1     >16
 1    O=C1O[C@@H](CO)CN1c1ccc(-c2ccccc2F)cc1      >8
 2  CC(=O)NC[C@H]1CN(c2ccc(-c3ccc(C#N)c(O)c3)c(F)c2)C(=O)O1      >8
 3  NCc1ccc(-c2ccc(N3C[C@H](Cn4cc(O)nn4)OC3=O)cc2F)cc1      >2
 4  N/C(=N\O)c1ccc(-c2ccc(N3C[C@H](CO)OC3=O)cc2F)cn1     >16
 5  O=C1O[C@@H](CNC(=O)C(F)(F)F)CN1c1ccc(-c2ccc(F)c(O)c2)c(F)c1      >2
 6  N/C(=N\O)c1ccc(-c2ccc(N3C[C@H](CNC(=O)C(F)(F)F)OC3=O)cc2F)cc1    >256
 7  CC(=O)NC[C@H]1CN(c2ccc(-c3ccc(F)c(O)c3)c(F)c2)C(=O)O1     >32
 8  NCc1ccc(-c2ccc(N3C[C@H](Cn4cc(CN)nn4)OC3=O)cc2F)cc1      >2
 9  CC(=O)NC[C@H]1CN(c2ccc(-c3cnc(C#N)c(O)c3)c(F)c2)C(=O)O1      >2
10  O=C(NC[C@H]1CN(c2ccc(-c3ccc(F)c(O)c3)c(F)c2)C(=O)O1)C(F)F      >8
11  Nc1cc(-c2ccc(N3C[C@H](CNC(=O)C(F)(F)F)OC3=O)cc2F)ccn1     >=8
12  CCOc1cnnn1C[C@H]1CN(c2ccc(-c3ccc(CN)cc3)c(F)c2)C(=O)O1      >2

* * *

Reported MIC values for the following compounds.
System: Escherichia coli
Assay: Antibacterial activity against gram-negative wild type Escherichia coli MG1655 by CLSI broth microdilution method
Assay type: functional
PROPERTY NAME: MIC

>>> df
                               input_smiles       result
0  O=C1O[C@@H](CO)CN1c1ccc(-c2cc(O)ccc2F)cc1  > 256 µg/mL
1  NC[C@H]1CN(c2ccc(N3CCOCC3)c(F)c2)C(=O)O1  > 256 µg/mL
2  O=C(NC[C@H]1CN(c2ccc(-c3ccc(F)c(O)c3)c(F)c2)C(=O)O1)C(F)F   > 32 µg/mL
3  NCc1ccc(-c2ccc(N3C[C@H](CN4CCOC4=O)OC3=O)cc2F)cc1  > 256 µg/mL
4  NCc1ccc(-c2ccc(N3C[C@H](CN4C(=O)CNC4=O)OC3=O)cc2F)cc1  > 256 µg/mL
5  NCc1ccc(-c2ccc(N3C[C@H](Cn4cc(C(=O)O)nn4)OC3=O)cc2F)cc1  > 256 µg/mL
